- System Name: HMX2
- Assay Remarks: pooled miR-30 sensor sort-seq; sequence = guide strand
- Measurement Parameters: shRNA
# sensor-assay potency score (higher = more potent) annotations
Give a plain numeric answer without units written out.

See these solved cases before continuing.
1. TAAAGTCCGAGTGCGAAGGAGA	-1.28
2. TCTTCTTCTTGGCCGCGCCGGC	-1.36
3. TCGAGCTGGTACACCTGGCTGC	-0.393
4. TTCTCTTCTTTAAAGTCCGAGT	-1
5. TGGAACCAAGTCTTTACCTGGG	-0.326

Query: sensor-assay potency score (higher = more potent); subject: `TGAAGCTGGAGACGCCACCGGC`
-0.77

Entry under review: `TCCGAGGACACGGACAGGCTGC` . Reported sensor-assay potency score (higher = more potent)?
-1.46

State the recorded sensor-assay potency score (higher = more potent) for this entry: `TGTATAGGTTGTAGAGAGGTAA`
-0.622

###

- System Name: SLC25A5
- Assay Remarks: pooled miR-30 sensor sort-seq; sequence = guide strand
- Measurement Parameters: shRNA
Decision: sensor-assay potency score (higher = more potent) compared against -0.5; not below it gives criterion met, below it gives criterion not met.

For orientation, consider the following solved cases.
1) TGCAGTGTCATAGATACCGAAG	criterion not met
2) TTCTCTTGTCCACACCACCCAG	criterion not met
3) ATGGATAGGAAGTCAACCCGGC	criterion met
4) TTATCTGCAGTGATCTGCTTGC	criterion met
5) TTATCTTTGAAGGCGAAGTTAA	criterion not met
6) TCGGTAGATGATAATACCCTGC	criterion met
7) TACAAGACAAGCACAAAAGCAC	criterion met
8) TTCATCACGAGCAATCTTCCGC	criterion met

Reported sensor-assay potency score (higher = more potent) reaches at least -0.5 for `TATAATGCCTTTGTATTGCTTA` ?
criterion met

Determine whether this sequence has sensor-assay potency score (higher = more potent) no lower than -0.5: `TCTGCAGTGATCTGCTTGCTGG`
criterion not met

###

This section presents sequences with their documented sensor-assay potency score (higher = more potent) values.
- System Name: TMEM231
- Assay Remarks: pooled miR-30 sensor sort-seq; sequence = guide strand
- Measurement Parameters: shRNA
No unit in the answer, please; the number alone is enough.

1) TAAGAAATGACTTCCACAGGGT	0.705
2) TTAAAATGTAACATGTCCGTCT	0.405

Tell me reported sensor-assay potency score (higher = more potent) for `TAATCGATAGGAGAAAGTCAGG` , tested with TMEM231.
-1.54

sensor-assay potency score (higher = more potent) of `AACACGAAGATCTTGATTCTTT` on TMEM231?
-0.0929

Param readout= sensor-assay potency score (higher = more potent); system= TMEM231; entry= `TGAGGTCGTAGTCATAGGCAAA` ; returns value.
-1.58

###

- System Name: ETFA
- Assay Remarks: pooled miR-30 sensor sort-seq; sequence = guide strand
- Measurement Parameters: shRNA
Endpoint Name: sensor-assay potency score (higher = more potent)
Format: numeric value only, no unit, no commentary.

1. TAAATCTGCAACTATTCCATAA	-0.957
2. TTAGCTCTGGTCGATCACTTTT	-1.24
3. TTATGAAATGTAGCTCTCCATG	-1.39
4. TTTACAGAGATCTTGTGCCACC	-0.57
5. TTTCTGGTCAAGCCACTCTGAT	-1.17

// lookup sensor-assay potency score (higher = more potent) for `TAGTTCTCACAAATGTGTCAGG`
-0.609

Look up sensor-assay potency score (higher = more potent) for this sequence: `TCTTGCTGTCTTTCATCCCAGC`
-0.987

Requested field: sensor-assay potency score (higher = more potent). Item: `TAGCTCTGGTCGATCACTTTTT`
-1

State the recorded sensor-assay potency score (higher = more potent) for this entry: `TAAATAGTTCTCACAAATGTGT`
-0.288

// sensor-assay potency score (higher = more potent) lookup, key: `TAATTGAACTGCTTCTGAGTTG`
-0.401

###

- System Name: C2orf55
- Assay Remarks: pooled miR-30 sensor sort-seq; sequence = guide strand
- Measurement Parameters: shRNA
Endpoint Name: sensor-assay potency score (higher = more potent)

Known sensor-assay potency score (higher = more potent) results, listed for orientation:
1. TTATCCTCTTTGTTTTGCCTGG	-0.575
2. TTATTTTTGGAAACAGTCTATG	-0.924
3. TTGATGATAAAATCAATCTTTA	-0.855

What value of sensor-assay potency score (higher = more potent) has been recorded for this entry: `TTAGATTTTTTCTTTCCTGTGC`
0.654

Param item = `ATTATTTTTGGAAACAGTCTAT` ; retrieve measured sensor-assay potency score (higher = more potent).
-0.496

Using the record for `TTGAATTTAGATTTTTTCTTTC` , report its sensor-assay potency score (higher = more potent).
-0.493

Fill in the blank: the reported sensor-assay potency score (higher = more potent) of `TTTCTTTCTGGCAAGTTCCATC` is ____.
-0.776

# get_value(readout='sensor-assay potency score (higher = more potent)', item= `TTGTTTGCCACAATACACTGGC` )
0.782

###

- System Name: PSMG3
- Assay Remarks: pooled miR-30 sensor sort-seq; sequence = guide strand
- Measurement Parameters: shRNA
This section presents sequences with their documented sensor-assay potency score (higher = more potent) values.
Give a plain numeric answer without units written out.

1. TTCTCAAACACAAGCAACGATT	-1.54
2. ATGGATGAGAGGCTCATCCTGC	-1.3
3. TTGAGACACAAACGCTACCAGG	-0.891

API: value(readout=sensor-assay potency score (higher = more potent), system=PSMG3) for record `TCTTCTGCTTCGATATCACCAA`
-0.805

###

- System Name: CYB5RL
- Assay Remarks: pooled miR-30 sensor sort-seq; sequence = guide strand
- Measurement Parameters: shRNA
Endpoint Name: sensor-assay potency score (higher = more potent)
The reply should be a number, written without any unit.

Reference set (5 entries):
1) TTTATAGAAGAAATCTCCGAAA	-0.391
2) TAGAGGTCAAACACACAGGGTG	-0.0487
3) TTCCTCAGTGTCGTCGTCCTCT	-0.09
4) TTTAATTAGGTCCTGGCCCAGG	-0.401
5) TTTCTCTTGGTAACTCCAGGGA	-0.389

Could you now look at the following sequence, please?
Form entry - test system: CYB5RL; read-out: sensor-assay potency score (higher = more potent); sequence: `TTAATTAACACTTCAAAGTATC`
-1.17

###

In this section, each of the sequences is paired with its reported sensor-assay potency score (higher = more potent).
- System Name: PHF23
- Assay Remarks: pooled miR-30 sensor sort-seq; sequence = guide strand
- Measurement Parameters: shRNA
Give only the figure.

Some sequences with known sensor-assay potency score (higher = more potent) results, for comparison:
1) TTAACTTCCGCTTCTTGCTCTT	0.475
2) TTTTATAGACAACTGTCCCATT	-0.805
3) TTCTCTTGGATGACTTTGCTTT	-0.308
4) TTTAACTTCCGCTTCTTGCTCT	0.601
5) TACCATGATGTCCTCGTCCATG	-1.2

I have this sequence here, `TTGCCATCTCTTCTTCTTCTTC` , and I need its recorded sensor-assay potency score (higher = more potent).
-0.747

###

List of sensor-assay potency score (higher = more potent) values.
- System Name: ZBTB9
- Assay Remarks: pooled miR-30 sensor sort-seq; sequence = guide strand
- Measurement Parameters: shRNA
Number only, please.

As a guide, the following entries are already answered.
1. TTAATGTAGAAGATTTTGGGGG	-0.261
2. TTTCTGAGCACTGATCTACTAC	-0.637
3. TAAATAATTGAAAATCTGGTTT	-0.887
4. TGAGCACTGATCTACTACCTGC	-0.24
5. TAACACTGCTTTATGAGCCCTA	-0.401

// below: sensor-assay potency score (higher = more potent) requested for another sequence
Param readout= sensor-assay potency score (higher = more potent); system= ZBTB9; entry= `TAAAACATTTACCACTGTCTTT` ; returns value.
-1.1

###

Listing of recorded sensor-assay potency score (higher = more potent) by entry.
- System Name: ASTE1
- Assay Remarks: pooled miR-30 sensor sort-seq; sequence = guide strand
- Measurement Parameters: shRNA
When you answer, write just the number.

Take a look at these entries with their results.
1. TTATCTAGTGCTTCGGTAGGGT	0.589
2. TTCATTACTATGATCTTCCACA	-0.12
3. TAGATATTCATAAAGTTGCTTA	-0.483
4. TTGAACTGAAGCAAAGACGGTG	0.0207
5. TTGAATTTGATCTACCTTTTGG	-0.435

Query sequence follows.
// lookup sensor-assay potency score (higher = more potent) | system=ASTE1 | key= `TTTTTGAATTTGATCTACCTTT`
-0.342

Every entry's value here was drawn from the OligoGym collection.
